# ASSAYED SYSTEM: mutant HIV reverse transcriptase, K103N mutation (Human immunodeficiency virus type 1 group M subtype B, UniProt P04585, K690N)
# Construct: made in house
# PROTOCOL NOTES: Analogous RT inhibition assay, K103N mutant
# Type: biochemical
# REPORTED CONDITIONS: K103N mutant RT; tested up to 20 micromolar; read-out: IC50, K103N mutant assay
OBSERVATION TYPE: IC50

[in] Query: IC50; subject: COC(=O)c1cc(-c2c[nH]c(-c3[nH]c4ccc(Br)cc4c3S(=O)(=O)N3CCCC3)n2)ccc1O
[out] < 1 µM

[in] Query: IC50; subject: O=S(=O)(c1ccccc1)c1c(-c2noc(C3CCC3)n2)[nH]c2ccc(Cl)cc12
[out] > 20 µM

[in] Query: IC50; subject: O=S(=O)(c1c(-c2nc(-c3ccc(O)cc3)c[nH]2)[nH]c2ccc(Br)cc12)N1CCCC1
[out] < 1 µM

[in] Query: IC50; subject: O=[N+]([O-])c1ccc(-c2c[nH]c(-c3[nH]c4ccc(Br)cc4c3S(=O)(=O)N3CCCC3)n2)cc1
[out] < 1 µM

[in] Query: IC50; subject: O=S(=O)(c1c(-c2nc(-c3ccc(N4CCOCC4)cc3)c[nH]2)[nH]c2ccc(Br)cc12)N1CCCC1
[out] < 1 µM

[in] Query: IC50; subject: O=S(=O)(c1ccccc1)c1c(-c2noc([C@@H]3C[C@H]3c3ccccc3)n2)[nH]c2ccc(Cl)cc12
[out] > 20 µM

[in] Query: IC50; subject: O=S(=O)(c1ccccc1)c1c(-c2noc(COc3ccccc3)n2)[nH]c2ccc(Cl)cc12
[out] > 20 µM

[in] Query: IC50; subject: O=S(=O)(c1c(-c2nc(-c3ccc(Cl)cc3)c[nH]2)[nH]c2ccc(Br)cc12)N1CCCC1
[out] < 1 µM

[in] Query: IC50; subject: O=S(=O)(c1c(-c2ncc(-c3ccccc3)[nH]2)[nH]c2ccc(Br)cc12)N1CCCC1
[out] < 1 µM

[in] Query: IC50; subject: O=S(=O)(c1ccccc1)c1c(-c2noc(-c3ccc(F)cc3F)n2)[nH]c2ccc(Cl)cc12
[out] > 20 µM

[in] Query: IC50; subject: O=S(=O)(c1ccccc1)c1c(-c2noc(-c3ccccc3F)n2)[nH]c2ccc(Cl)cc12
[out] > 20 µM

[in] Query: IC50; subject: CCc1nc(-c2[nH]c3ccc(Cl)cc3c2S(=O)(=O)c2ccccc2)no1
[out] > 20 µM

[in] Query: IC50; subject: O=S(=O)(c1c(-c2nc(-c3ccc(F)cc3)c[nH]2)[nH]c2ccc(Br)cc12)N1CCCC1
[out] < 1 µM

[in] Query: IC50; subject: CCC(OC)c1cnc(-c2[nH]c3ccc(Br)cc3c2S(=O)(=O)N2CCCC2)[nH]1 (stereo not drawn)
[out] < 1 µM

[in] Query: IC50; subject: COc1ccc(-c2c[nH]c(-c3[nH]c4ccc(Br)cc4c3S(=O)(=O)N3CCCC3)n2)cc1
[out] < 1 µM

[in] Query: IC50; subject: Cc1cnc(-c2[nH]c3ccc(Br)cc3c2S(=O)(=O)N2CCCC2)[nH]1
[out] < 1 µM

[in] Query: IC50; subject: O=S(=O)(c1ccccc1)c1c(-c2noc(-c3ccncc3)n2)[nH]c2ccc(Cl)cc12
[out] > 20 µM

[in] Query: IC50; subject: O=S(=O)(c1ccccc1)c1c(-c2nc(-c3cccnc3)cs2)[nH]c2ccc(Cl)cc12
[out] > 20 µM

[in] Query: IC50; subject: O=S(=O)(c1c(-c2nc(-c3ccc(F)cc3F)c[nH]2)[nH]c2ccc(Br)cc12)N1CCCC1
[out] < 1 µM

[in] Query: IC50; subject: N#Cc1ccc(-c2c[nH]c(-c3[nH]c4ccc(Br)cc4c3S(=O)(=O)N3CCCC3)n2)cc1
[out] < 1 µM

[in] Query: IC50; subject: O=S(=O)(c1c(-c2nc(-c3ccc4c(c3)OCO4)c[nH]2)[nH]c2ccc(Br)cc12)N1CCCC1
[out] < 1 µM

[in] Query: IC50; subject: O=S(=O)(c1c(-c2nc3ccccc3[nH]2)[nH]c2ccc(Br)cc12)N1CCCC1
[out] < 1 µM

[in] Query: IC50; subject: O=S(=O)(c1ccccc1)c1c(-c2noc(Cc3ccccc3)n2)[nH]c2ccc(Cl)cc12
[out] > 20 µM

[in] Query: IC50; subject: O=S(=O)(c1ccccc1)c1c(-c2nc(-c3ccccn3)cs2)[nH]c2ccc(Cl)cc12
[out] > 20 µM

[in] Query: IC50; subject: O=S(=O)(c1c(-c2nc(-c3ccc(F)c(F)c3)c[nH]2)[nH]c2ccc(Br)cc12)N1CCCC1
[out] < 1 µM

[in] Query: IC50; subject: O=S(=O)(c1c(-c2nc([C@H](O)[C@@H](O)[C@@H](O)CO)c[nH]2)[nH]c2ccc(Br)cc12)N1CCCC1
[out] < 1 µM

[in] Query: IC50; subject: Cc1nc(-c2[nH]c3ccc(Cl)cc3c2S(=O)(=O)c2ccccc2)no1
[out] > 20 µM
